What PBM binding z-score was measured for each of the following?
Test system: RXRa DBDmut IVT, anti-RXR (DBD mutation: RXRa K156A/R161A, NR concentration 90 nM)
measurement-notes: PBM binding z-score (relative to random genomic background probes); higher = stronger binding; sequences stand for … in GC…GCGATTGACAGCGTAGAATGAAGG
Please reply with the value in numeric form only.

# input I am curious: what PBM binding z-score value has been reported for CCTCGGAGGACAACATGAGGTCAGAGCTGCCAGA ?
# output 1.15

# input I am curious: what PBM binding z-score value has been reported for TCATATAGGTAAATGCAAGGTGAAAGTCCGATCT ?
# output 1.93

# input I am curious: what PBM binding z-score value has been reported for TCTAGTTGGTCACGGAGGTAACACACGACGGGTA ?
# output 0.681

# input I am curious: what PBM binding z-score value has been reported for ATCTCTAGGTAAACATAGTTCAGTGAATGCAAAT ?
# output -0.105

# input I am curious: what PBM binding z-score value has been reported for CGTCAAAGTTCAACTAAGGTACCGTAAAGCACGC ?
# output 4.77

# input I am curious: what PBM binding z-score value has been reported for CATAGCAGGCCAATCTGGGTCACTCAAGGCTTGA ?
# output -0.0976

---

System: LXRb:RXRa (NR concentration 270 nM, RXRa partner concentration 90 nM)
measurement-notes: PBM binding z-score (relative to random genomic background probes); higher = stronger binding; sequences stand for … in GC…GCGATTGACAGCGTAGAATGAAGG
attribute-measured: PBM binding z-score
Please reply with the value in numeric form only.

# input Lab note: need PBM binding z-score with LXRb:RXRa (NR concentration 270 nM, RXRa partner concentration 90 nM) for entry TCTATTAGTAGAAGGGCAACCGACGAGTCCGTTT , please look it up.
# output 0.17

# input Lab note: need PBM binding z-score with LXRb:RXRa (NR concentration 270 nM, RXRa partner concentration 90 nM) for entry GGAACGAGGGCAATGTTGATAGCATCTGTCGACG , please look it up.
# output 0.395

# input Lab note: need PBM binding z-score with LXRb:RXRa (NR concentration 270 nM, RXRa partner concentration 90 nM) for entry CCGACTGGGGCATAAGGTAACCATAAGCCAGCCC , please look it up.
# output -0.112

# input Lab note: need PBM binding z-score with LXRb:RXRa (NR concentration 270 nM, RXRa partner concentration 90 nM) for entry AATACAGGGTCACTAGGCCTGAGTAGGTACGAAT , please look it up.
# output 3.72

# input Lab note: need PBM binding z-score with LXRb:RXRa (NR concentration 270 nM, RXRa partner concentration 90 nM) for entry GCAGACAGGCGAAACGCAGGTAACTCAGGGTGGC , please look it up.
# output -1

# input Lab note: need PBM binding z-score with LXRb:RXRa (NR concentration 270 nM, RXRa partner concentration 90 nM) for entry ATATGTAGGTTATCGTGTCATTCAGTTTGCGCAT , please look it up.
# output 1.5

# input Lab note: need PBM binding z-score with LXRb:RXRa (NR concentration 270 nM, RXRa partner concentration 90 nM) for entry GCTACAGGGTCAAGGCCAGAGTACGCGTATTGAT , please look it up.
# output 3.53

# input Lab note: need PBM binding z-score with LXRb:RXRa (NR concentration 270 nM, RXRa partner concentration 90 nM) for entry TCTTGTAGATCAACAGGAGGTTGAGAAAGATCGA , please look it up.
# output -0.211

# input Lab note: need PBM binding z-score with LXRb:RXRa (NR concentration 270 nM, RXRa partner concentration 90 nM) for entry CCTACTGGGCCAAAAAGGTCTTTGATGCCGATAA , please look it up.
# output -0.343

# input Lab note: need PBM binding z-score with LXRb:RXRa (NR concentration 270 nM, RXRa partner concentration 90 nM) for entry ACAGACAGGTGATGCAGGTAACTCAGGCTATCAT , please look it up.
# output -0.222

# input Lab note: need PBM binding z-score with LXRb:RXRa (NR concentration 270 nM, RXRa partner concentration 90 nM) for entry TCGAGTAGGTTACCAATGAGGCATTCAGCTTTCT , please look it up.
# output 0.0718

# input Lab note: need PBM binding z-score with LXRb:RXRa (NR concentration 270 nM, RXRa partner concentration 90 nM) for entry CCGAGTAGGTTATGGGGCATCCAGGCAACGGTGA , please look it up.
# output 0.332

# input Lab note: need PBM binding z-score with LXRb:RXRa (NR concentration 270 nM, RXRa partner concentration 90 nM) for entry TAGCCTAAGTCATTCAGGGGCCAGTATAGAAAGC , please look it up.
# output 0.338

# input Lab note: need PBM binding z-score with LXRb:RXRa (NR concentration 270 nM, RXRa partner concentration 90 nM) for entry CGAACTAGGTCAAGGGCAGTGAATCTCCGCACGC , please look it up.
# output 1.21

# input Lab note: need PBM binding z-score with LXRb:RXRa (NR concentration 270 nM, RXRa partner concentration 90 nM) for entry CTACCAAGGTGAACAAGGACGTTGATTACTATTC , please look it up.
# output 0.647

# input Lab note: need PBM binding z-score with LXRb:RXRa (NR concentration 270 nM, RXRa partner concentration 90 nM) for entry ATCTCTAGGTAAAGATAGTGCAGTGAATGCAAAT , please look it up.
# output 0.147

# input Lab note: need PBM binding z-score with LXRb:RXRa (NR concentration 270 nM, RXRa partner concentration 90 nM) for entry TCAGATAGGTAATACAGGTGAAAGTCGGCATCTA , please look it up.
# output 0.889

# input Lab note: need PBM binding z-score with LXRb:RXRa (NR concentration 270 nM, RXRa partner concentration 90 nM) for entry CCTCGGAGGACAGAAGGTCCGAGCTGTCCGCTTT , please look it up.
# output -1.15

# input Lab note: need PBM binding z-score with LXRb:RXRa (NR concentration 270 nM, RXRa partner concentration 90 nM) for entry AGAATGAGGTAACCAAAGATCAGGGAAACGCTTG , please look it up.
# output 0.439

# input Lab note: need PBM binding z-score with LXRb:RXRa (NR concentration 270 nM, RXRa partner concentration 90 nM) for entry TCTATTAGTTGAAGGGCAACCAACGAGTCCGTTT , please look it up.
# output 0.694

# input Lab note: need PBM binding z-score with LXRb:RXRa (NR concentration 270 nM, RXRa partner concentration 90 nM) for entry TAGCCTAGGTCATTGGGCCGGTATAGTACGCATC , please look it up.
# output 2.23

# input Lab note: need PBM binding z-score with LXRb:RXRa (NR concentration 270 nM, RXRa partner concentration 90 nM) for entry CGTCCAAGGTTAATGCTAGGTCAGTGAAAGCATT , please look it up.
# output 2.28

# input Lab note: need PBM binding z-score with LXRb:RXRa (NR concentration 270 nM, RXRa partner concentration 90 nM) for entry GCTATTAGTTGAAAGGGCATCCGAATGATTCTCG , please look it up.
# output 0.69

# input Lab note: need PBM binding z-score with LXRb:RXRa (NR concentration 270 nM, RXRa partner concentration 90 nM) for entry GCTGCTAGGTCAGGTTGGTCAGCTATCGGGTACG , please look it up.
# output 0.574

# input Lab note: need PBM binding z-score with LXRb:RXRa (NR concentration 270 nM, RXRa partner concentration 90 nM) for entry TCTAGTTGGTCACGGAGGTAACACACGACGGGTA , please look it up.
# output 0.404

# input Lab note: need PBM binding z-score with LXRb:RXRa (NR concentration 270 nM, RXRa partner concentration 90 nM) for entry TCGAGTAGGTTAGTCGGGGCATTCATCCAACATA , please look it up.
# output 0.86
